- Tested target: GST-CBP(1081-1197) bromodomain (Homo sapiens (Human))
- Sequence (Q92793 1081-1197): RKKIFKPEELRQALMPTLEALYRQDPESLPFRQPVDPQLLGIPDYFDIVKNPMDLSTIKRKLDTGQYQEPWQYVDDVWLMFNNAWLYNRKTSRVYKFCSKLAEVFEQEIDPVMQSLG
- Test description: CBP AlphaScreen Assay
- Cond: binding to biotin-H4(1-21) Ac-K5/8/12/16 peptide
Property: IC50 (nM)

The cases that follow already have their IC50 on record.
Compound	IC50 / nM
CNC(=O)N1CCn2c(C3CCOCC3)nc(-c3cccc4nc(-c5cnn(C)c5)c(C(F)(F)F)cc34)c2C1	4
CNC(=O)N1CCn2c(C3CCC(F)(F)CC3)nc(-c3c(F)ccc4cc(C5CCOCC5)ncc34)c2C1	4
CNC(=O)N1Cc2c(-c3cccc4cc(-c5cnn(C)c5)ncc34)nc(C3CC3)n2CC1C (stereo not shown)	19
CC(=O)N1CCn2c(C3CC3)nc(N3CCCc4cc(-c5cnn(C(F)F)c5)ccc43)c2C1	185

P. CNC(=O)N1CCn2c(C3CCOCC3)nc(-c3c(F)ccc4cc(-c5ccn(C)n5)ncc34)c2C1
Q. CNC(=O)N1CCn2c(C3CC3)nc(N3CCCc4nc(-c5cnn(C)c5)c(C(F)(F)F)cc43)c2C1
R. CNC(=O)N1CCn2c(C3CC3)nc(-c3cccc4nc(-c5cnn(C)c5)c(C#N)cc34)c2C1
S. CC(=O)N1CCn2c(C3CC3)nc(N3CCCc4cc(-c5cnn(C6CCOCC6)c5)ccc43)c2C1
T. CC(=O)N1CCn2c(C3CC3)nc(N3CCCc4cc(-c5c(C)noc5C)ccc43)c2C1
Sort entries by IC50 from minimum to maximum value. Your reply should list the labels following the order given in the request. R, P, Q, S, T
